ASSAYED_TARGET: IGF-1 receptor (Homo sapiens, UniProt P08069)
Construct: endogenous in cells
Sequence (P08069 741-1367 limits assumed): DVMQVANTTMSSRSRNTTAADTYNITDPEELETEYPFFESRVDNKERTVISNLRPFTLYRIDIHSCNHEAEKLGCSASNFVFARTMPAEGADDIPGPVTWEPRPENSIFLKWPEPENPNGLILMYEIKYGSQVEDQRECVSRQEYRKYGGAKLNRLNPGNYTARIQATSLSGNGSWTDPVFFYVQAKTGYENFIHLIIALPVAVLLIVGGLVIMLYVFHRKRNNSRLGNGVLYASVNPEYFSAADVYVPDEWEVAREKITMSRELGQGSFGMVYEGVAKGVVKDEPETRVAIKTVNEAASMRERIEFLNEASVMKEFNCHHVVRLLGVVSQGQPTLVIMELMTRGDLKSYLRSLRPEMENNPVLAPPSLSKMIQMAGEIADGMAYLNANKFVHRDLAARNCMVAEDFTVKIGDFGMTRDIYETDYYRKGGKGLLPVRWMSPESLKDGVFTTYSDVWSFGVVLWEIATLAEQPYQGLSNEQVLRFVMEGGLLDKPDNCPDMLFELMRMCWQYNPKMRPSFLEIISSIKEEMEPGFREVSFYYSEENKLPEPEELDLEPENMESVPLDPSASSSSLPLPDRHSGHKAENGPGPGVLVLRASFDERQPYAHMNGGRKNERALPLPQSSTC
Sequence (P08069 31-736 limits assumed): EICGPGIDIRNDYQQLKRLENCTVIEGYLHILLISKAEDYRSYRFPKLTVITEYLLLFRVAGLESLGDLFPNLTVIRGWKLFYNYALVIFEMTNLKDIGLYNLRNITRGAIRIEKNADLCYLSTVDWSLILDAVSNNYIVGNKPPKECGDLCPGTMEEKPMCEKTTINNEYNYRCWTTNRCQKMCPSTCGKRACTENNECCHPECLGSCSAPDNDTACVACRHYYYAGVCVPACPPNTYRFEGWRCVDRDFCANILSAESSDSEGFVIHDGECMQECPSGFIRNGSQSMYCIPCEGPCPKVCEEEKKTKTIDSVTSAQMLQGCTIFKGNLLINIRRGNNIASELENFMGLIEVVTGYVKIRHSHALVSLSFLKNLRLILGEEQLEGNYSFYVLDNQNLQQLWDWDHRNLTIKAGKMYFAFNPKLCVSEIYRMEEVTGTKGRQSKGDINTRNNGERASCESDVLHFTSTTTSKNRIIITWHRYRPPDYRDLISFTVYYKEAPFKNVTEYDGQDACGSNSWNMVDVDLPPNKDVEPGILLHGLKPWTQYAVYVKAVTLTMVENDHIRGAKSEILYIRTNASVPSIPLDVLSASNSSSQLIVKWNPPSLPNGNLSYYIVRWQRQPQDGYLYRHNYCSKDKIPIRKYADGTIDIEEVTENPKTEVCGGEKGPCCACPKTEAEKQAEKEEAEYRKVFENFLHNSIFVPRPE
ASSAY_INFO: Inhibition of the phosphorylation of the IGF-1 receptor in MCF-7 cells (immunoblotting for phospho-IGF-1R Y1135/1136)
PROTOCOL_CONDITIONS: MCF-7 cells serum starved 20 hours, treated 3 hours, stimulated with 10 nM IGF-1 for 5 minutes
ASSAY_ENDPOINT: IC50

[ask] Entry COc1ccc2c(c1O)CN(C)C(=O)C2c1cc(OC)c(OC)c(OC)c1 (single isomer, unassigned; (+)) needs its IC50 filled in; supply it.
[reply] ~1000 nM
